organism: Rattus norvegicus; assay: Open TG-GATES - Regimen: Single; assay type: toxicity, organism-based, Sprague-Dawley; parameters: regimen Single, gender Male, age 6 weeks; details: in vivo, po, 1000 mg/kg, 24 h, tissue Plasma, route gavage, dose level High
Reported metric: ALP (IU/L)
One number for each entry, in IU/L.

Known results for molecules:
COc1ccc2[nH]c([S+]([O-])Cc3ncc(C)c(OC)c3C)nc2c1 (centres undefined): 924
CCOC(=O)CCC(=O)O[C@H]1[C@H](O[C@@H]2[C@@H](C)[C@H](O[C@H]3C[C@@](C)(OC)[C@@H](O)[C@H](C)O3)[C@@H](C)C(=O)O[C@H](CC)[C@@](C)(O)[C@H](O)[C@@H](C)C(=O)[C@H](C)C[C@@]2(C)O)O[C@H](C)C[C@@H]1N(C)C [ERYTHROMYCIN ETHYLSUCCINATE]: 1448.8
NC(N)=Nc1nc(CSCCC(N)=NS(N)(=O)=O)cs1: 1062.2

Kindly consider the entry below.
Query block: Give its ALP value. Item: COC1=CC(=O)C[C@@H](C)[C@]12Oc1c(Cl)c(OC)cc(OC)c1C2=O
Result block: 1124.8

----------
species: Rattus norvegicus; assay: Open TG-GATES - Regimen: Single; type: toxicity, organism-based, Sprague-Dawley; parameters: regimen Single, gender Male, age 6 weeks; conditions: in vivo, po, 1000 mg/kg, 9 h, tissue Kidney, route gavage, dose level High
Reported metric: KIDNEY_L (g)
Give bare numbers, in g.

Known results for compounds:
CC(C)OC(=O)C(C)(C)Oc1ccc(C(=O)c2ccc(Cl)cc2)cc1 [FENOFIBRATE]: 0.8
NC(N)=Nc1nc(CSCCC(N)=NS(N)(=O)=O)cs1: 1
COC1=CC(=O)C[C@@H](C)[C@]12Oc1c(Cl)c(OC)cc(OC)c1C2=O: 0.9

Kindly give each listed record's KIDNEY_L.
1. COc1ccc2[nH]c([S+]([O-])Cc3ncc(C)c(OC)c3C)nc2c1 (stereo not given)
2. CCOC(=O)CCC(=O)O[C@H]1[C@H](O[C@@H]2[C@@H](C)[C@H](O[C@H]3C[C@@](C)(OC)[C@@H](O)[C@H](C)O3)[C@@H](C)C(=O)O[C@H](CC)[C@@](C)(O)[C@H](O)[C@@H](C)C(=O)[C@H](C)C[C@@]2(C)O)O[C@H](C)C[C@@H]1N(C)C [ERYTHROMYCIN ETHYLSUCCINATE]

Result block:
1
1

----------
Field: LIVER. Provide a value for each of the compounds that follow.
species: Rattus norvegicus; assay: Open TG-GATES - Regimen: Daily Repeat; assay type: toxicity, organism-based, Sprague-Dawley; set-up: regimen Daily Repeat, gender Male, age 6 weeks; conditions: in vivo, po, 300 mg/kg, 72 h, tissue Liver, route gavage, dose level Middle, time 3 day
Give bare numbers, in g.

COC1=CC(=O)C[C@@H](C)[C@]12Oc1c(Cl)c(OC)cc(OC)c1C2=O: 11.3
COc1ccc2[nH]c([S+]([O-])Cc3ncc(C)c(OC)c3C)nc2c1 (stereo not given): 12.8
CCOC(=O)CCC(=O)O[C@H]1[C@H](O[C@@H]2[C@@H](C)[C@H](O[C@H]3C[C@@](C)(OC)[C@@H](O)[C@H](C)O3)[C@@H](C)C(=O)O[C@H](CC)[C@@](C)(O)[C@H](O)[C@@H](C)C(=O)[C@H](C)C[C@@]2(C)O)O[C@H](C)C[C@@H]1N(C)C [ERYTHROMYCIN ETHYLSUCCINATE]: 10.9

Kindly give each listed record's LIVER.
1. CCOc1ccc(NC(=O)CC(C)O)cc1 (stereo not given)
2. NC(N)=Nc1nc(CSCCC(N)=NS(N)(=O)=O)cs1

Result block:
11.7
10.4

----------
Field: TC. Provide a value for each of the compounds that follow.
species on record: Rattus norvegicus; assay: Open TG-GATES - Regimen: Single; format: toxicity, organism-based, Sprague-Dawley; set-up: regimen Single, gender Male, age 6 weeks; details: in vivo, po, 10 mg/kg, 3 h, tissue Plasma, route gavage, dose level Low
Enter the number, and then the unit.

Known results for compounds:
CC(C)OC(=O)C(C)(C)Oc1ccc(C(=O)c2ccc(Cl)cc2)cc1 [FENOFIBRATE]: 80.4 mg/dL
CN(C)CCN(Cc1cccs1)c1ccccn1: 67.8 mg/dL
CC1=C(/C=C/C(C)=C/C=C/C(C)=C/CO)C(C)(C)CCC1: 81.2 mg/dL

Kindly give each listed record's TC.
1. CN(C)CCCN1c2ccccc2CCc2ccc(Cl)cc21
2. CN(C)CCCN1c2ccccc2CCc2ccccc21

Result block:
1. 76.2 mg/dL
2. 80.4 mg/dL

----------
Field: GLC. Provide a value for each of the compounds that follow.
species on record: Rattus norvegicus; test: Open TG-GATES - Regimen: Single; type: toxicity, organism-based, Sprague-Dawley; set-up: regimen Single, gender Male, age 6 weeks; conditions: in vivo, po, 1000 mg/kg, 6 h, tissue Plasma, route gavage, dose level High
One number for each entry, in mg/dL.

Known results for compounds:
COc1ccc2[nH]c([S+]([O-])Cc3ncc(C)c(OC)c3C)nc2c1 (stereo not given): 192.2
CCOC(=O)CCC(=O)O[C@H]1[C@H](O[C@@H]2[C@@H](C)[C@H](O[C@H]3C[C@@](C)(OC)[C@@H](O)[C@H](C)O3)[C@@H](C)C(=O)O[C@H](CC)[C@@](C)(O)[C@H](O)[C@@H](C)C(=O)[C@H](C)C[C@@]2(C)O)O[C@H](C)C[C@@H]1N(C)C [ERYTHROMYCIN ETHYLSUCCINATE]: 176.8
NC(N)=Nc1nc(CSCCC(N)=NS(N)(=O)=O)cs1: 192.4
COC1=CC(=O)C[C@@H](C)[C@]12Oc1c(Cl)c(OC)cc(OC)c1C2=O: 204

Kindly consider the entry below.
Query block: Give its GLC value. Item: CC(C)OC(=O)C(C)(C)Oc1ccc(C(=O)c2ccc(Cl)cc2)cc1 [FENOFIBRATE]
Result block: 170.4

----------
organism: Rattus norvegicus; assay: Open TG-GATES - Regimen: Single; assay type: toxicity, organism-based, Sprague-Dawley; parameters: regimen Single, gender Male, age 6 weeks; settings: in vivo, po, 100 mg/kg, 24 h, tissue Plasma, route gavage, dose level Low
Field: PL. Provide a value for each of the compounds that follow.
Numbers only, in mg/dL.

Known results for compounds:
CCOC(=O)CCC(=O)O[C@H]1[C@H](O[C@@H]2[C@@H](C)[C@H](O[C@H]3C[C@@](C)(OC)[C@@H](O)[C@H](C)O3)[C@@H](C)C(=O)O[C@H](CC)[C@@](C)(O)[C@H](O)[C@@H](C)C(=O)[C@H](C)C[C@@]2(C)O)O[C@H](C)C[C@@H]1N(C)C [ERYTHROMYCIN ETHYLSUCCINATE]: 140.4
COc1ccc2[nH]c([S+]([O-])Cc3ncc(C)c(OC)c3C)nc2c1 (centres undefined) [OMEPRAZOLE]: 145.4
NC(N)=Nc1nc(CSCCC(N)=NS(N)(=O)=O)cs1 [FAMOTIDINE]: 145.8

Kindly consider the entry below.
Query block: Give its PL value. Item: COC1=CC(=O)C[C@@H](C)[C@]12Oc1c(Cl)c(OC)cc(OC)c1C2=O [GRISEOFULVIN]
Result block: 136.4

----------
Field: Na. Provide a value for each of the compounds that follow.
species: Rattus norvegicus; test: Open TG-GATES - Regimen: Daily Repeat; type: toxicity, organism-based, Sprague-Dawley; design: regimen Daily Repeat, gender Male, age 6 weeks; conditions: in vivo, po, 300 mg/kg, 72 h, tissue Plasma, route gavage, dose level Middle, time 3 day

CCOc1ccc(NC(=O)CC(C)O)cc1 (stereo not given): 143.4 meq/L
NC(N)=Nc1nc(CSCCC(N)=NS(N)(=O)=O)cs1: 139.2 meq/L
COc1ccc2[nH]c([S+]([O-])Cc3ncc(C)c(OC)c3C)nc2c1 (stereo not given): 139.8 meq/L
CCOC(=O)CCC(=O)O[C@H]1[C@H](O[C@@H]2[C@@H](C)[C@H](O[C@H]3C[C@@](C)(OC)[C@@H](O)[C@H](C)O3)[C@@H](C)C(=O)O[C@H](CC)[C@@](C)(O)[C@H](O)[C@@H](C)C(=O)[C@H](C)C[C@@]2(C)O)O[C@H](C)C[C@@H]1N(C)C [ERYTHROMYCIN ETHYLSUCCINATE]: 141.2 meq/L

Query block: Give its Na value. Item: COC1=CC(=O)C[C@@H](C)[C@]12Oc1c(Cl)c(OC)cc(OC)c1C2=O
Result block: 141.2 meq/L

----------
organism: Rattus norvegicus; assay: Open TG-GATES - Regimen: Daily Repeat; type: toxicity, organism-based, Sprague-Dawley; parameters: regimen Daily Repeat, gender Male, age 6 weeks; conditions: in vivo, po, 300 mg/kg, […], tissue Plasma, route gavage, dose level Middle, time 7 day
Reported metric: DBIL (mg/dL)
Answers are plain numbers, in mg/dL.

Known results for molecules:
CCOC(=O)CCC(=O)O[C@H]1[C@H](O[C@@H]2[C@@H](C)[C@H](O[C@H]3C[C@@](C)(OC)[C@@H](O)[C@H](C)O3)[C@@H](C)C(=O)O[C@H](CC)[C@@](C)(O)[C@H](O)[C@@H](C)C(=O)[C@H](C)C[C@@]2(C)O)O[C@H](C)C[C@@H]1N(C)C [ERYTHROMYCIN ETHYLSUCCINATE]: 0
CCOc1ccc(NC(=O)CC(C)O)cc1 (stereo not given): 0.018
NC(N)=Nc1nc(CSCCC(N)=NS(N)(=O)=O)cs1: 0.092
COC1=CC(=O)C[C@@H](C)[C@]12Oc1c(Cl)c(OC)cc(OC)c1C2=O: 0.08

Kindly consider the entry below.
Query block: Give its DBIL value. Item: COc1ccc2[nH]c([S+]([O-])Cc3ncc(C)c(OC)c3C)nc2c1 (stereo not given)
Result block: 0.086
